FYI, the data here is from ChEMBL document CHEMBL3046169.

Please go through the items and note down their mortality at 25 µg/mL.
# Tested on: Tetranychus cinnabarinus
# assay-remarks: Pesticidal activity against Tetranychus cinnabarinus (carmine spider mite) third- instar larvae grown on Phaseolus vulgaris leaves assessed as pest mortality at 25 mg/L measured 48 hr post compound exposure
# Format: functional
Answers are plain numbers, in %.

{"input-smiles": "Cc1cc(Br)cc(C(=O)NNCc2ccccc2Cl)c1NC(=O)C(C)(C)CCl", "measured-target": "Tetranychus cinnabarinus", "parameter-measured": "mortality at 25 µg/mL", "recorded-measurement": 36.5}
{"input-smiles": "Cc1cc(Cl)cc(C(=O)NNCc2ccccc2Cl)c1NC(=O)CC(C)(C)C", "measured-target": "Tetranychus cinnabarinus", "parameter-measured": "mortality at 25 µg/mL", "recorded-measurement": 38.4}
{"input-smiles": "Cc1cc(Cl)cc(C(=O)NNCc2ccccc2Cl)c1NC(=O)C(C)(C)C", "measured-target": "Tetranychus cinnabarinus", "parameter-measured": "mortality at 25 µg/mL", "recorded-measurement": 30.9}
{"input-smiles": "CC(C)(C)c1ccc(CSc2cnn(C(C)(C)C)c(=O)c2Cl)cc1", "measured-target": "Tetranychus cinnabarinus", "parameter-measured": "mortality at 25 µg/mL", "recorded-measurement": 97.7}

Take each entry in turn and give its mortality at 25 µg/mL.
1. CNC(=O)c1cc(Cl)cc(C)c1NC(=O)c1cc(Br)nn1-c1ncccc1Cl
2. Cc1cc(Br)cc(C(=O)NNCc2cccc(C(F)(F)F)c2)c1NC(=O)CC(C)(C)C

Result ::
7.4
26

* * *

Please go through the items and note down their mortality at 600 µg/mL.
# System: Tetranychus cinnabarinus
# assay-remarks: Pesticidal activity against Tetranychus cinnabarinus (carmine spider mite) third- instar larvae grown on Phaseolus vulgaris leaves assessed as pest mortality at 600 mg/L measured 48 hr post compound exposure
# Assay type: functional

Answered cases to consult:
{"input-smiles": "Cc1cc(Cl)cc(C(=O)NNCc2cccc(C(F)(F)F)c2)c1NC(=O)C(C)(C)CCl", "recorded-measurement": "61.8%"}
{"input-smiles": "Cc1cc(Cl)cc(C(=O)NNCc2ccc(F)cc2)c1NC(=O)C(C)(C)CCl", "recorded-measurement": "67%"}
{"input-smiles": "Cc1cc(Br)cc(C(=O)NNCc2ccccc2)c1NC(=O)CC(C)(C)C", "recorded-measurement": "78.1%"}
{"input-smiles": "Cc1cc(Cl)cc(C(=O)NNCc2ccccc2F)c1NC(=O)C(C)(C)CCl", "recorded-measurement": "61.1%"}
{"input-smiles": "Cc1cc(Cl)cc(C(=O)NNCc2ccccc2)c1NC(=O)C(C)(C)C", "recorded-measurement": "92.5%"}
{"input-smiles": "Cc1cc(Cl)cc(C(=O)NNCc2ccccc2)c1NC(=O)CC(C)(C)C", "recorded-measurement": "70.1%"}

Take each entry in turn and give its mortality at 600 µg/mL.
1. Cc1cc(Cl)cc(C(=O)NNCc2ccc(Cl)nc2)c1NC(=O)C(C)(C)C
2. Cc1cc(Cl)cc(C(=O)NNCc2ccc(F)cc2)c1NC(=O)C(C)(C)C
3. Cc1cc(Cl)cc(C(=O)NNCc2ccc(Cl)cc2Cl)c1NC(=O)CC(C)(C)C
4. Cc1cc(Cl)cc(C(=O)NNCc2ccccc2Cl)c1NC(=O)C(C)(C)C

Result ::
81.3%
73.8%
88.8%
100%

* * *

# Tested on: Aphis gossypii
# assay-remarks: Pesticidal activity against Aphis gossypii (cotton aphid) third-instar nymphae grown on tender Hibiscus syriacus leaves assessed as pest mortality at 600 mg/L measured 24 hr post compound exposure
# Assay type: functional
# test-parameters: in Hibiscus syriacus
parameter-measured: mortality at 600 µg/mL (%)
Answers are plain numbers, in %.

Answered cases to consult:
{"input-smiles": "Cc1cc(Cl)cc(C(=O)NNCc2ccccc2)c1NC(=O)CC(C)(C)C", "measured-target": "Aphis gossypii", "parameter-measured": "mortality at 600 µg/mL", "recorded-measurement": 70.4}
{"input-smiles": "Cc1cc(Cl)cc(C(=O)NNCc2ccccc2F)c1NC(=O)C(C)(C)C", "measured-target": "Aphis gossypii", "parameter-measured": "mortality at 600 µg/mL", "recorded-measurement": 38.9}
{"input-smiles": "Cc1cc(Br)cc(C(=O)NNCc2ccc(Cl)nc2)c1NC(=O)CC(C)(C)C", "measured-target": "Aphis gossypii", "parameter-measured": "mortality at 600 µg/mL", "recorded-measurement": 25.9}

Take each entry in turn and give its mortality at 600 µg/mL.
1. Cc1cc(Cl)cc(C(=O)NNCc2ccccc2Cl)c1NC(=O)CC(C)(C)C
2. Cc1cc(Br)cc(C(=O)NNCc2ccc(Cl)cc2Cl)c1NC(=O)C(C)(C)C
3. Cc1cc(Cl)cc(C(=O)NNCc2ccc(Cl)cc2Cl)c1NC(=O)C(C)(C)CCl
4. Cc1cccc(C(=O)NNCc2ccccc2)c1NC(=O)C(C)(C)CCl

Result ::
65.5
90.2
42.3
95.6

* * *

# System: Tetranychus cinnabarinus
# assay-remarks: Pesticidal activity against Tetranychus cinnabarinus (carmine spider mite) third- instar larvae grown on Phaseolus vulgaris leaves assessed as pest mortality at 600 mg/L measured 48 hr post compound exposure
# Assay type: functional
Please go through the items and note down their mortality at 600 µg/mL.
Numbers only, in %.

{"input-smiles": "Cc1cccc(C(=O)NNCc2cccc(C(F)(F)F)c2)c1NC(=O)CC(C)(C)C", "recorded-measurement": 57.9}
{"input-smiles": "Cc1cc(Cl)cc(C(=O)NNCc2ccccc2)c1NC(=O)C(C)(C)CCl", "recorded-measurement": 50.9}
{"input-smiles": "Cc1cccc(C(=O)NNCc2ccccc2Cl)c1NC(=O)C(C)(C)CCl", "recorded-measurement": 46.7}

Let's switch to this compound now.
Query :: Find the measured mortality at 600 µg/mL of `Cc1cc(Br)cc(C(=O)NNCc2ccc(Cl)cc2Cl)c1NC(=O)C(C)(C)CCl` and report it.
Result :: 82.5

* * *

# Test system: Aphis gossypii
# assay-remarks: Pesticidal activity against Aphis gossypii (cotton aphid) third-instar nymphae grown on tender Hibiscus syriacus leaves assessed as pest mortality at 600 mg/L measured 24 hr post compound exposure
# Type: functional
# test-parameters: in Hibiscus syriacus
Please go through the items and note down their mortality at 600 µg/mL.
Answers are plain numbers, in %.

Take each entry in turn and give its mortality at 600 µg/mL.
1. Cc1cccc(C(=O)NNCc2ccccc2Cl)c1NC(=O)C(C)(C)CCl
2. Cc1cc(Br)cc(C(=O)NNCc2cccc(C(F)(F)F)c2)c1NC(=O)CC(C)(C)C
3. Cc1cc(Br)cc(C(=O)NNCc2ccccc2)c1NC(=O)CC(C)(C)C

Result ::
68.8
18.7
96.6
